// reported MIC per item
Tested on: Staphylococcus aureus SA1199B
Assay type: cell-based
// note: answer is a bare numeric in µg/mL

# MOLECULE, MIC [µg/mL]
data = [
    ("CNC(CC(C)C)C(=O)NC1C(=O)NC(CC(N)=O)C(=O)NC2C(=O)NC3C(=O)NC(C(=O)NC(C(=O)O)c4cc(O)cc(O)c4-c4cc3ccc4O)C(OC3CC(C)(N)C(O)C(C)O3)c3ccc(c(Cl)c3)Oc3cc2cc(c3OC2OC(CO)C(O)C(O)C2OC2CC(C)(NCc3cccc(OCc4ccc5ccccc5n4)c3)C(O)C(C)O2)Oc2ccc(cc2Cl)C1O (stereo not drawn) [Compound 125]", 2),
]

Now take the following molecule into account.
Q: // MIC lookup, key: CNC(CC(C)C)C(=O)NC1C(=O)NC(CC(N)=O)C(=O)NC2C(=O)NC3C(=O)NC(C(=O)NC(C(=O)O)c4cc(O)cc(O)c4-c4cc3ccc4O)C(OC3CC(C)(N)C(O)C(C)O3)c3ccc(c(Cl)c3)Oc3cc2cc(c3OC2OC(CO)C(O)C(O)C2OC2CC(C)(NCc3ccc(OC(C)=O)c(OC)c3)C(O)C(C)O2)Oc2ccc(cc2Cl)C1O (stereo not drawn) [Compound 99]
Result: 0.5

###

System: vancomycin-resistant enterococci
EXPERIMENT_SUMMARY: broth micro-dilution, mean geometric MIC
Format: cell-based, Enterococcus faecium and Enterococcus faecalis
ASSAY_CONDITIONS: enterococci, 24-hour incubation
Decision: mean geometric MIC, Vancomycin Resistant Strains >= 1 µg/mL yields 1, all other cases yield 0.

# MOLECULE, ANSWER_LABEL
records = [
    ("CNC(CC(C)C)C(=O)NC1C(=O)NC(CC(N)=O)C(=O)NC2C(=O)NC3C(=O)NC(C(=O)NC(C(=O)O)c4cc(O)cc(O)c4-c4cc3ccc4O)C(OC3CC(C)(N)C(O)C(C)O3)c3ccc(c(Cl)c3)Oc3cc2cc(c3OC2OC(CO)C(O)C(O)C2OC2CC(C)(NCc3ccc(OCCC4CCCCC4)cc3)C(O)C(C)O2)Oc2ccc(cc2Cl)C1O (stereo not drawn)", 1),
    ("CCCCCC#Cc1ccc(CNC2(C)CC(OC3C(Oc4c5cc6cc4Oc4ccc(cc4Cl)C(OC4CC(C)(N)C(O)C(C)O4)C4NC(=O)C(NC(=O)C6NC(=O)C(CC(N)=O)NC(=O)C(NC(=O)C(CC(C)C)NC)C(O)c6ccc(c(Cl)c6)O5)c5ccc(O)c(c5)-c5c(O)cc(O)cc5C(C(=O)O)NC4=O)OC(CO)C(O)C3O)OC(C)C2O)cc1 (stereo not drawn)", 0),
    ("CNC(CC(C)C)C(=O)NC1C(=O)NC(CC(N)=O)C(=O)NC2C(=O)NC3C(=O)NC(C(=O)NC(C(=O)O)c4cc(O)cc(O)c4-c4cc3ccc4O)C(OC3CC(C)(N)C(O)C(C)O3)c3ccc(c(Cl)c3)Oc3cc2cc(c3OC2OC(CO)C(O)C(O)C2OC2CC(C)(NCCc3ccccc3OCc3ccccc3)C(O)C(C)O2)Oc2ccc(cc2Cl)C1O (stereo not drawn)", 1),
    ("CNC(CC(C)C)C(=O)NC1C(=O)NC(CC(N)=O)C(=O)NC2C(=O)NC3C(=O)NC(C(=O)NC(C(=O)O)c4cc(O)cc(O)c4-c4cc3ccc4O)C(OC3CC(C)(N)C(O)C(C)O3)c3ccc(c(Cl)c3)Oc3cc2cc(c3OC2OC(CO)C(O)C(O)C2OC2CC(C)(NCCCCCCCCBr)C(O)C(C)O2)Oc2ccc(cc2Cl)C1O (stereo not drawn)", 1),
    ("CNC(CC(C)C)C(=O)NC1C(=O)NC(CC(N)=O)C(=O)NC2C(=O)NC3C(=O)NC(C(=O)NC(C(=O)O)c4cc(O)cc(O)c4-c4cc3ccc4O)C(OC3CC(C)(N)C(O)C(C)O3)c3ccc(c(Cl)c3)Oc3cc2cc(c3OC2OC(CO)C(O)C(O)C2OC2CC(C)(NCc3ccc(OCc4ccccc4)c(OC)c3)C(O)C(C)O2)Oc2ccc(cc2Cl)C1O (stereo not drawn)", 0),
]

Here is another molecule to look at.
Q: Is the recorded value of mean geometric MIC, Vancomycin Resistant Strains equal to or greater than 1 µg/mL for this molecule? CNC(CC(C)C)C(=O)NC1C(=O)NC(CC(N)=O)C(=O)NC2C(=O)NC3C(=O)NC(C(=O)NC(C(=O)O)c4cc(O)cc(O)c4-c4cc3ccc4O)C(OC3CC(C)(NCc4cnc5ccccc5c4)C(O)C(C)O3)c3ccc(c(Cl)c3)Oc3cc2cc(c3OC2OC(CO)C(O)C(O)C2OC2CC(C)(NCc3cnc4ccccc4c3)C(O)C(C)O2)Oc2ccc(cc2Cl)C1O (stereo not drawn)
Result: 1
